Tested on: Rattus norvegicus
protocol: Hypolipidemic activity in alloxan-induced diabetic Wistar rat model assessed as reduction in triglyceride level at 30 mg/kg, po for 15 days measured on day 15
Format: functional
Parameters: scale not given: the % may be the effect or the level left
Listed compounds paired with reported Activity
recorded endpoint: Activity (%)

>  <chemical smiles>
O=C1NC(=O)/C(=C/c2ccc(OCCSc3nnc(-c4ccccc4[N+](=O)[O-])[nH]3)cc2)S1

>  <endpoint value>
38.64

$$$$
>  <chemical smiles>
O=C1NC(=O)/C(=C/c2ccc(OCc3csc(-c4ccccc4)n3)cc2)S1

>  <endpoint value>
40.26

$$$$
>  <chemical smiles>
O=C1NC(=O)/C(=C/c2ccc(OCCSc3nnc(-c4ccc(Cl)cc4)[nH]3)cc2)S1

>  <endpoint value>
32.92

$$$$
>  <chemical smiles>
O=C1NC(=O)/C(=C/c2ccc(OCCSc3nnc(-c4ccccc4)o3)cc2)S1

>  <endpoint value>
24.05

$$$$
>  <chemical smiles>
O=C1NC(=O)/C(=C/c2ccc(OCCSc3nnc(-c4ccc(Br)cc4)[nH]3)cc2)S1

>  <endpoint value>
39.45

$$$$

---

System: Rattus norvegicus
protocol: Hypolipidemic activity in alloxan-induced diabetic Wistar rat model assessed as reduction in triglyceride level at 3 mg/kg, po for 15 days measured on day 15
Assay type: functional
Set-up: scale not given: the % may be the effect or the level left
The following molecules are shown together with reported Activity values.
recorded endpoint: Activity (%)

>  <molecule>
Cc1ccc(-c2nnc(SCCOc3ccc(/C=C4\SC(=O)NC4=O)cc3)[nH]2)cc1

>  <recorded endpoint>
Activity

>  <endpoint value>
25.24

$$$$
>  <molecule>
O=C1NC(=O)/C(=C/c2ccc(OCCSc3nnc(-c4ccc(Cl)cc4)[nH]3)cc2)S1

>  <recorded endpoint>
Activity

>  <endpoint value>
23.85

$$$$
>  <molecule>
O=C1NC(=O)/C(=C/c2ccc(OCCSc3nnc(-c4ccccc4[N+](=O)[O-])[nH]3)cc2)S1

>  <recorded endpoint>
Activity

>  <endpoint value>
19.84

$$$$
>  <molecule>
COc1ccc(-c2nnc(SCCOc3ccc(/C=C4\SC(=O)NC4=O)cc3)[nH]2)cc1

>  <recorded endpoint>
Activity

>  <endpoint value>
43.14

$$$$
>  <molecule>
CCc1ccc(CCOc2ccc(CC3SC(=O)NC3=O)cc2)nc1 (centres undefined)

>  <recorded endpoint>
Activity

>  <endpoint value>
41.6

$$$$
>  <molecule>
O=C1NC(=O)/C(=C/c2ccc(OCCSc3nnc(-c4ccc([N+](=O)[O-])cc4)[nH]3)cc2)S1

>  <recorded endpoint>
Activity

>  <endpoint value>
14.12

$$$$
>  <molecule>
O=C1NC(=O)/C(=C/c2ccc(OCCSc3nnc(Cc4ccccc4)o3)cc2)S1

>  <recorded endpoint>
Activity

>  <endpoint value>
18.52

$$$$
>  <molecule>
O=C1NC(=O)/C(=C/c2ccc(OCc3csc(-c4ccccc4)n3)cc2)S1

>  <recorded endpoint>
Activity

>  <endpoint value>
25.24

$$$$
>  <molecule>
O=C1NC(=O)/C(=C/c2ccc(OCCSc3nnc(-c4ccccc4)o3)cc2)S1

>  <recorded endpoint>
Activity

>  <endpoint value>
21.56

$$$$

---

Test system: Rattus norvegicus
protocol: Hypolipidemic activity in alloxan-induced diabetic Wistar rat model assessed as reduction in triglyceride level at 3 mg/kg, po for 15 days measured on day 15
Assay type: functional
Design: scale not given: the % may be the effect or the level left
recorded endpoint: Activity (%)

>  <chemical smiles>
O=C1NC(=O)/C(=C/c2ccc(OCCSc3nnc(-c4cccnc4)o3)cc2)S1

>  <target desc>
Rattus norvegicus

>  <endpoint value>
40.66

$$$$
>  <chemical smiles>
O=C1NC(=O)/C(=C/c2ccc(OCCSc3nnc(-c4ccc(Br)cc4)[nH]3)cc2)S1

>  <target desc>
Rattus norvegicus

>  <endpoint value>
28.35

$$$$
>  <chemical smiles>
O=C1NC(=O)/C(=C/c2ccc(OCCSc3nnc(-c4ccccc4)[nH]3)cc2)S1

>  <target desc>
Rattus norvegicus

>  <endpoint value>
18.62

$$$$
>  <chemical smiles>
Cc1nc(COc2ccc(/C=C3\SC(=O)NC3=O)cc2)cs1

>  <target desc>
Rattus norvegicus

>  <endpoint value>
18.62

$$$$
>  <chemical smiles>
O=C1NC(=O)/C(=C/c2ccc(OCCSc3nnc(Cc4ccccc4)[nH]3)cc2)S1

>  <target desc>
Rattus norvegicus

>  <endpoint value>
22.45

$$$$
>  <chemical smiles>
O=C1NC(=O)/C(=C/c2ccc(OCCSc3nnc(-c4ccncc4)o3)cc2)S1

>  <target desc>
Rattus norvegicus

>  <endpoint value>
40.15

$$$$

---

Test system: Rattus norvegicus
protocol: Hypolipidemic activity in alloxan-induced diabetic Wistar rat model assessed as reduction in triglyceride level at 30 mg/kg, po for 15 days measured on day 15
Type: functional
Design: scale not given: the % may be the effect or the level left
The compounds listed here are annotated with their Activity.
recorded endpoint: Activity (%)

>  <compound>
O=C1NC(=O)/C(=C/c2ccc(OCCSc3nnc(-c4ccccc4)[nH]3)cc2)S1

>  <recorded endpoint>
Activity

>  <endpoint unit>
%

>  <endpoint value>
26.4

$$$$
>  <compound>
Cc1nc(COc2ccc(/C=C3\SC(=O)NC3=O)cc2)cs1

>  <recorded endpoint>
Activity

>  <endpoint unit>
%

>  <endpoint value>
26.4

$$$$
>  <compound>
O=C1NC(=O)/C(=C/c2ccc(OCCSc3nnc(-c4cccnc4)o3)cc2)S1

>  <recorded endpoint>
Activity

>  <endpoint unit>
%

>  <endpoint value>
60.78

$$$$
>  <compound>
O=C1NC(=O)/C(=C/c2ccc(OCCSc3nnc(Cc4ccccc4)o3)cc2)S1

>  <recorded endpoint>
Activity

>  <endpoint unit>
%

>  <endpoint value>
28.02

$$$$
>  <compound>
Cc1ccc(-c2nnc(SCCOc3ccc(/C=C4\SC(=O)NC4=O)cc3)[nH]2)cc1

>  <recorded endpoint>
Activity

>  <endpoint unit>
%

>  <endpoint value>
40.26

$$$$
>  <compound>
CCc1ccc(CCOc2ccc(CC3SC(=O)NC3=O)cc2)nc1 (stereo not given) [PIOGLITAZONE]

>  <recorded endpoint>
Activity

>  <endpoint unit>
%

>  <endpoint value>
64.59

$$$$
>  <compound>
O=C1NC(=O)/C(=C/c2ccc(OCCSc3nnc(-c4ccc([N+](=O)[O-])cc4)[nH]3)cc2)S1

>  <recorded endpoint>
Activity

>  <endpoint unit>
%

>  <endpoint value>
18.56

$$$$
>  <compound>
O=C1NC(=O)/C(=C/c2ccc(OCCSc3nnc(Cc4ccccc4)[nH]3)cc2)S1

>  <recorded endpoint>
Activity

>  <endpoint unit>
%

>  <endpoint value>
38.25

$$$$
>  <compound>
O=C1NC(=O)/C(=C/c2ccc(OCCSc3nnc(-c4ccncc4)o3)cc2)S1

>  <recorded endpoint>
Activity

>  <endpoint unit>
%

>  <endpoint value>
58.48

$$$$
>  <compound>
COc1ccc(-c2nnc(SCCOc3ccc(/C=C4\SC(=O)NC4=O)cc3)[nH]2)cc1

>  <recorded endpoint>
Activity

>  <endpoint unit>
%

>  <endpoint value>
59.46

$$$$
